System: 186277-243-T-J2-PDC multi-cell spheroid viability;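 note: spheroids exposed to compounds for seven days before viability reading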
protocol-description: Anticancer human tumor 186277-243-T-J2-PDC patient-derived colon adenocarcinoma cell line growth inhibition [PI3K]
condition-summary: curve of first compound; second compound 0.1 µM
measured-attribute: IC50 (nM)

Worked cases, IC50 given:
compound	unit-descriptor	IC50
Cn1cnc2c(F)c(Nc3ccc(Br)cc3Cl)c(C(=O)NOCCO)cc21 + Cc1nc(NC(=O)N2CCCC2C(N)=O)sc1-c1ccnc(C(C)(C)C(F)(F)F)c1	nM	66.7
CC1(C)CCC(Nc2ncc(C(F)(F)F)c(-c3c[nH]c4c(P(C)(C)=O)c(C#N)ccc34)n2)CN1 (configuration not stated) + CC(Nc1ccc2c(c1)OCCn1cc(N3C(=O)OCC3C(F)F)nc1-2)C(N)=O	nM	1650
Cn1ncc(Cl)c1-c1cc(C(=O)NC(CN)Cc2cccc(F)c2)sc1Cl (configuration not stated) + CC(Nc1ncnc2nc[nH]c12)c1cc2cccc(Cl)c2c(=O)n1-c1ccccc1	nM	1330
CC(C)NCC(C(=O)N1CCN(c2ncnc3c2C(C)CC3O)CC1)c1ccc(Cl)cc1 (configuration not stated) + CC(Nc1ncnc2nc[nH]c12)c1cc2cccc(Cl)c2c(=O)n1-c1ccccc1	nM	1060

1: CC(C)NCC(C(=O)N1CCN(c2ncnc3c2C(C)CC3O)CC1)c1ccc(Cl)cc1 (configuration not stated) + Cc1nc(NC(=O)N2CCCC2C(N)=O)sc1-c1ccnc(C(C)(C)C(F)(F)F)c1
2: Cn1nccc1Nc1nccc(-c2ccn(C(CO)c3ccc(Cl)c(F)c3)c(=O)c2)n1 (configuration not stated) + Cc1nc(NC(=O)N2CCCC2C(N)=O)sc1-c1ccnc(C(C)(C)C(F)(F)F)c1
3: Cn1nccc1Nc1nccc(-c2ccn(C(CO)c3ccc(Cl)c(F)c3)c(=O)c2)n1 (configuration not stated) + CC(Nc1ccc2c(c1)OCCn1cc(N3C(=O)OCC3C(F)F)nc1-2)C(N)=O
4: C[C@@H](NC(=O)c1ncnc(N)c1Cl)c1ncc(C(=O)Nc2cc(C(F)(F)F)c(Cl)cn2)s1 + CC(Nc1ccc2c(c1)OCCn1cc(N3C(=O)OCC3C(F)F)nc1-2)C(N)=O
5: CC(C)n1nc(-c2ccc3oc(N)nc3c2)c2c(N)ncnc21 + CC(Nc1ccc2c(c1)OCCn1cc(N3C(=O)OCC3C(F)F)nc1-2)C(N)=O
Ascending by IC50, please: list the compounds accordingly. Would you mind listing the labels in the order requested? 5, 3, 1, 2, 4
(5: 30.4 nM, 3: 377 nM, 1: 603 nM, 2: 1190 nM, 4: 5930 nM)

Entry source: PubChem BioAssay AID1963983
